Answer each item with its documented Latency: Time to display the ejaculatory response.
# Tested on: Male Wistar rats
# PROTOCOL SUMMARY: p-PCA-induced ejaculation in anesthetized rats (ejaculation-delaying effect)
# Type: in vivo, rat
# ASSAY CONDITIONS: 50 mg/kg oral; p-PCA 5 mg/kg i.p.; mean ± standard deviation of responding rats
One number for each entry, in s.

Study these solved cases before continuing.
Answer with the recorded Latency: Time to display the ejaculatory response of COc1ccc(C2(CCn3cccn3)OCc3cc(C#N)ccc32)cc1.Cl (stereo not drawn) only.
974

Answer with the recorded Latency: Time to display the ejaculatory response of Cl.N#Cc1ccc2c(c1)COC2(CCCn1cccn1)c1cccs1 (stereo not drawn) only.
979

Answer with the recorded Latency: Time to display the ejaculatory response of COc1ccc(C2(CCCN(C)C)OCc3cc(C#N)ccc32)cc1 (stereo not drawn) only.
1024

Answer with the recorded Latency: Time to display the ejaculatory response of Cc1ccc(C2(CCN(C)C)OCc3cc(C#N)ccc32)cc1 (stereo not drawn) only.
1021

Answer with the recorded Latency: Time to display the ejaculatory response of CN(C)CCCC1(c2ccccc2)OCc2cc(C#N)ccc21 (stereo not drawn) only.
1025

Moving on to another molecule below.
Answer with the recorded Latency: Time to display the ejaculatory response of Cc1ccc(C2(CCn3cccn3)OCc3cc(C#N)ccc32)cc1 (stereo not drawn) only.
1000
